The reported measurements were obtained from patent US20210388087A1.

- subject.of.test: human CD3 ed (human, UniProt P07766 23-126; P04234 22-105, limits assumed)
- Sequence (P07766 23-126 limits assumed, chain 1 of 2): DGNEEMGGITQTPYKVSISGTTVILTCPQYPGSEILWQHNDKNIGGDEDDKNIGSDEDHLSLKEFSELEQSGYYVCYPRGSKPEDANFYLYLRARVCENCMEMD
- Sequence (P04234 22-105 limits assumed, chain 2 of 2): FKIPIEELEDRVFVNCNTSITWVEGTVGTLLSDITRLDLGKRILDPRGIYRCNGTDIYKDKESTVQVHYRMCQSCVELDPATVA
- assay.remarks: SPR Biacore T200, IgG captured on protein A, 25 C;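 further: antigens diluted in ACES running buffer at pH 7.4 were flowed over antibodies held on a CM3 chip bearing amine-coupled protein A, with buffer alone serving as blank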
property: kon (M⁻¹ s⁻¹)
Entry rule: numbers only, all in M⁻¹ s⁻¹.

Previously resolved entries follow.
[
  {
    "binder": "dBBDu167/L094 (antibody, V domains shown, IgG format; constant regions not specified; also called dBBDu_167 dBBDu.L094) VH: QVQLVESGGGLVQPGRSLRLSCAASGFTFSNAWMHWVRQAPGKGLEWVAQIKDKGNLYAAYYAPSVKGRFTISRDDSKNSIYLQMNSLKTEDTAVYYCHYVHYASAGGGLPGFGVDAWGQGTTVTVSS VL: DIVMTQSPLSLPVTPGEPASISCYASEELLHINRHIYLHWYQQKPGQAPRLLIYKVYNRFNGVPDRFSGSGSGTDFTLKISRVEAEDVGVYYCAQGSSVPFTFGQGTKLEIK",
    "kon [M⁻¹ s⁻¹]": 60200
  },
  {
    "binder": "dBBDu186/L098 (antibody, V domains shown, IgG format; constant regions not specified) VH: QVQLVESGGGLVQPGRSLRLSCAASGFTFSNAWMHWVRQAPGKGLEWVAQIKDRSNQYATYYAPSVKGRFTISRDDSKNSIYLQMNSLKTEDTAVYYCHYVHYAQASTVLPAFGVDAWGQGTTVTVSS VL: DIVMTQSPLSLPVTPGEPASISCAASEELVHINRYIFLHWYQQKPGQAPRLLIYKVSNRFIGVPDRFSGSGSGTDFTLKISRVEAEDVGVYYCAQGSQVPFTFGQGTKLEIK",
    "kon [M⁻¹ s⁻¹]": 11100
  }
]

// next entry
Input: Value lookup for kon; key = dBBDu186/L100 (antibody, V domains shown, IgG format; constant regions not specified) VH: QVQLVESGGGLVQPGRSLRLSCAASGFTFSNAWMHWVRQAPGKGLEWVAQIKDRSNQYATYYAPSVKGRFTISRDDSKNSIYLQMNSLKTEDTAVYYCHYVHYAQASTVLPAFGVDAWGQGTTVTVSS VL: DIVMTQSPLSLPVTPGEPASISCSASEELVHINRYIFLHWYQQKPGQAPRLLIYKVYNRFMGVPDRFSGSGSGTDFTLKISRVEAEDVGVYYCGQGSSVPFTFGQGTKLEIK
Output: 16200
